Kindly state pKi for each of the entries shown.
- SYSTEM_TESTED: human α7 nAChR (Homo sapiens, UniProt P36544)
- Construct: expressed in transfected cells
- ASSAY_REMARKS: Radioligand displacement binding assay, membranes of SH-SY5Y cells stably transfected with human α7 nAChR
- RUN_CONDITIONS: SH-SY5Y membranes; [3H]methyllycaconitine ~0.5 nM per table footnote; mean of two independent experiments, single values in brackets; read-out: Binding Affinity Ki α7
pKi (log units): -log10 of the concentration in mol/L.

Lookup: Requested read-out: pKi. Entry: `Oc1ccc(-c2cn([C@@H]3CN4CCC3CC4)nn2)cc1F`
Found: 7.57

Lookup: // lookup pKi for `Fc1cc(-c2cn([C@H]3CN4CCC3CC4)nn2)ccc1OCc1ccccc1`
Found: 7.27

Lookup: Entry under review: `Oc1ccc(-c2cn([C@H]3CN4CCC3CC4)nn2)cc1F` . Reported pKi?
Found: 8.35

* * *

Can you tell me Ki for the items I'm about to list?
- SYSTEM_TESTED: human α4β2 nAChR (Homo sapiens, UniProt P17787+P43681)
- ASSAY_REMARKS: Competitive radioligand displacement binding assay, membranes of HEK293 cells stably transfected with human α4β2 nAChR

Lookup: Recorded Ki for `Oc1ccc(-c2cn([C@H]3CN4CCC3CC4)nn2)cc1F` , please?
Found: 5980 nM

Lookup: Which Ki is listed for `Oc1ccc(-c2cn([C@@H]3CN4CCC3CC4)nn2)cc1F` ?
Found: 504 nM

Lookup: What measured Ki goes with `Fc1cc(-c2cn([C@@H]3CN4CCC3CC4)nn2)ccc1OCc1ccccc1` ?
Found: 180 nM

Lookup: Look up Ki for this compound: `Fc1cc(-c2cn([C@H]3CN4CCC3CC4)nn2)ccc1OCc1ccccc1`
Found: 4180 nM

* * *

- SYSTEM_TESTED: human α7 nAChR (Homo sapiens, UniProt P36544)
- Construct: expressed in transfected cells
- ASSAY_REMARKS: Radioligand displacement binding assay, membranes of SH-SY5Y cells stably transfected with human α7 nAChR
PROPERTY_NAME: Ki (µM)
State the answer as a number, implicitly in µM.

Lookup: # query: Ki | item `Fc1cc(-c2cn([C@@H]3CN4CCC3CC4)nn2)ccc1OCc1ccccc1` | system: human α7 nAChR (Homo sapiens, UniProt P36544)
Found: 9.76

* * *

PROPERTY_NAME: melting point

Lookup: Suppose we examine the compound `Oc1ccc(-c2cn([C@H]3CN4CCC3CC4)nn2)cc1F` ; what melting point value has been reported?
Found: 275 °C (dec.)

Lookup: What value of melting point has been recorded for this entry: `Fc1cc(-c2cn([C@@H]3CN4CCC3CC4)nn2)ccc1OCc1ccccc1`
Found: 173 to 175 °C

Lookup: GET /values?readout=melting point&item= `Oc1ccc(-c2cn([C@@H]3CN4CCC3CC4)nn2)cc1F`
Found: 258 °C (dec.)

Lookup: Consider the compound shown here: `Fc1cc(-c2cn([C@H]3CN4CCC3CC4)nn2)ccc1OCc1ccccc1` What is its recorded melting point?
Found: 180 to 181 °C

* * *

Please respond with reported pKi for every item in the list.
- SYSTEM_TESTED: human α3β4 nAChR (Homo sapiens, UniProt P30926+P32297)
- Construct: expressed in transfected cells
- ASSAY_REMARKS: Competitive radioligand displacement binding assay, membranes of HEK293 cells stably transfected with human α3β4 nAChR
As a rule, pKi stands for the negative log10 of the concentration, concentration in M.

Lookup: Need pKi of `Fc1cc(-c2cn([C@@H]3CN4CCC3CC4)nn2)ccc1OCc1ccccc1` , thanks.
Found: 8.50

Lookup: Please report the recorded pKi for `Oc1ccc(-c2cn([C@@H]3CN4CCC3CC4)nn2)cc1F` .
Found: 8.64

Lookup: Quick one: pKi of `Oc1ccc(-c2cn([C@H]3CN4CCC3CC4)nn2)cc1F` ?
Found: 6.22

Lookup: Which pKi value is on record for `Fc1cc(-c2cn([C@H]3CN4CCC3CC4)nn2)ccc1OCc1ccccc1` ?
Found: 6.95

* * *

For each of the compounds below, state its Selectivity Ratios α4β2/α7.
- SYSTEM_TESTED: human α7 nAChR (Homo sapiens)
- Construct: expressed in transfected cells
- ASSAY_REMARKS: Radioligand displacement binding assay, membranes of SH-SY5Y cells stably transfected with human α7 nAChR
- RUN_CONDITIONS: ratio of Ki values
Just the number.

Lookup: Please tell me: Selectivity Ratios α4β2/α7 of `Fc1cc(-c2cn([C@H]3CN4CCC3CC4)nn2)ccc1OCc1ccccc1` , system human α7 nAChR (Homo sapiens)?
Found: 77.9

Lookup: Lab note: need Selectivity Ratios α4β2/α7 with human α7 nAChR (Homo sapiens) for entry `Fc1cc(-c2cn([C@@H]3CN4CCC3CC4)nn2)ccc1OCc1ccccc1` , please look it up.
Found: 0.02

Lookup: Record `Oc1ccc(-c2cn([C@H]3CN4CCC3CC4)nn2)cc1F` : what is its Selectivity Ratios α4β2/α7 with human α7 nAChR (Homo sapiens)?
Found: 1331

Lookup: Record lookup: for human α7 nAChR (Homo sapiens), what Selectivity Ratios α4β2/α7 belongs to `Oc1ccc(-c2cn([C@@H]3CN4CCC3CC4)nn2)cc1F` ?
Found: 18.9

* * *

- SYSTEM_TESTED: human α3β4 nAChR (Homo sapiens, UniProt P30926+P32297)
- Construct: expressed in transfected cells
- ASSAY_REMARKS: Competitive radioligand displacement binding assay, membranes of HEK293 cells stably transfected with human α3β4 nAChR
- RUN_CONDITIONS: ratio of Ki values
Assignment: determine reported Selectivity Ratios α4β2/α3β4 for the given compounds.
I'd appreciate a reply containing only the number, no unit.

Lookup: Could you share which Selectivity Ratios α4β2/α3β4 value was measured for `Fc1cc(-c2cn([C@H]3CN4CCC3CC4)nn2)ccc1OCc1ccccc1` ?
Found: 37.3

Lookup: Name the recorded Selectivity Ratios α4β2/α3β4 for `Oc1ccc(-c2cn([C@H]3CN4CCC3CC4)nn2)cc1F` .
Found: 9.95

Lookup: I have this compound here, `Oc1ccc(-c2cn([C@@H]3CN4CCC3CC4)nn2)cc1F` , and I need its recorded Selectivity Ratios α4β2/α3β4.
Found: 221

Lookup: Quick check: Selectivity Ratios α4β2/α3β4 of `Fc1cc(-c2cn([C@@H]3CN4CCC3CC4)nn2)ccc1OCc1ccccc1` ?
Found: 56.6

* * *

- SYSTEM_TESTED: human α3β4 nAChR (Homo sapiens, UniProt P30926+P32297)
- Construct: expressed in transfected cells
- ASSAY_REMARKS: Competitive radioligand displacement binding assay, membranes of HEK293 cells stably transfected with human α3β4 nAChR
- RUN_CONDITIONS: ratio of Ki values; given as fold
PROPERTY_NAME: Selectivity Ratios α7/α3β4

Lookup: Record request: Selectivity Ratios α7/α3β4 value, item `Oc1ccc(-c2cn([C@@H]3CN4CCC3CC4)nn2)cc1F`
Found: 11.7

Lookup: Sample `Fc1cc(-c2cn([C@@H]3CN4CCC3CC4)nn2)ccc1OCc1ccccc1` — what was its Selectivity Ratios α7/α3β4?
Found: 3069

Lookup: Quick one: Selectivity Ratios α7/α3β4 for `Oc1ccc(-c2cn([C@H]3CN4CCC3CC4)nn2)cc1F` ?
Found: 0.01

Lookup: What value of Selectivity Ratios α7/α3β4 has been recorded for this entry: `Fc1cc(-c2cn([C@H]3CN4CCC3CC4)nn2)ccc1OCc1ccccc1`
Found: 0.48
